Examples of compounds with documented TGI follow.
- System: UO-31 renal
- ASSAY_NAME: NCI tumour cell line growth inhibition, 48 h

Some entries whose results are on file:
O[C@@]1(c2cccs2)c2cccc(Cl)c2[C@](O)(c2cccs2)c2cccc(Cl)c21 : > 100 µM
CCC(C)C(C(=O)N/N=C1/SCC(=O)N1C)C(=O)N/N=C1/SCC(=O)N1C (centres undefined) : > 100 µM
CO[C@H]1[C@@H](O)[C@@H](C)O[C@@H](O[C@H]2CC[C@@]3(C)[C@H](CC[C@@H]4[C@@H]3CC[C@]3(C)[C@@H](C5=CC(=O)OC5)CC[C@]43O)C2)[C@@H]1O : 0.0108 µM
N=C(N)C1CN(CCc2cnc[nH]2)C(=O)NC1=O (centres undefined) : > 100 µM
CN(C)c1ccc(-c2ccc(-c3ccc(C(=N)N)c(F)c3)s2)cc1 : 3.05 µM
O=[N+]([O-])c1ccc(N=Nc2c(O)ccc3cc(S(=O)(=O)O)ccc23)cc1 : > 100 µM
O=C(O)c1c[nH]c2c(=O)[nH]cnc12 : > 100 µM
Nc1ccc(-c2ncc3cc(-c4cccc(-c5cc6cnc(-c7ccc(N)cc7)nc6c6ccccc56)c4)c4ccccc4c3n2)cc1 : > 100 µM
Cc1c(C)c2c(c(C)c1NC(=O)/C=C\C(=O)O)CCC(C)(CCCC(C)CCCC(C)CCCC(C)C)O2 (centres undefined) : 2.55 µM
[C-]#[O+].[Cl][Sn]([Cl])[Cl].[Cl][Sn]([Cl])[Cl].[Pt].c1ccc([PH+](c2ccccc2)c2ccccc2)cc1.c1ccc([PH+](c2ccccc2)c2ccccc2)cc1 : > 100 µM

In one line, give reported TGI of the entry COc1cc(O)c2c(=O)c(OC)c(-c3ccc4c(c3)OCO4)oc2c1 .
> 100 µM

In one line, give reported TGI of the entry COc1ccc(N(C)CN(C)c2nc(N(C)C)nc(N(C)C)n2)cc1 .
> 100 µM

In one line, give reported TGI of the entry O=c1[nH]c(=O)n(C2CC(O)C(CO)O2)cc1NN=NCCc1ccccc1 (centres undefined) .
> 100 µM

In one line, give reported TGI of the entry COc1cc2ccccc2c2cc([N+](=O)[O-])oc12 .
3.1 µM

In one line, give reported TGI of the entry CC1SC(c2ccccc2)N(Nc2c3ccccc3nc3ccccc23)C1=O (centres undefined) .
82.3 µM

In one line, give reported TGI of the entry CN1CCC(CNC(=O)CCCCCCCCC(=O)NCC2(c3ccccc3)CCN(C)CC2)(c2ccccc2)CC1 .
> 100 µM

In one line, give reported TGI of the entry CC1=CCC2(C#N)CCC1C2O (centres undefined) .
> 100 µM

In one line, give reported TGI of the entry O=C(O)C1CCc2nnc(-c3ccccc3)n21 (centres undefined) .
> 100 µM

In one line, give reported TGI of the entry Cn1cc(C2=C(c3c4n(c5ccccc35)CCCC4)C(=O)NC2=O)c2ccccc21 .
> 25 µM

---

- System: A498 renal
- ASSAY_NAME: NCI tumour cell line growth inhibition, 48 h
ENDPOINT_NAME: TGI (µM)
Dear colleague, please return just the value in µM, with no unit written.

O=C(O)c1nc2cc(C(F)(F)F)ccc2nc1Nc1ccc(Cl)c(Cl)c1 : 31.1
CC1(C)CCC[C@@]2(C)C1C[C@H](O)[C@@]1(C)O[C@@](C)([C@H](O)CO)CCC21 (stereo partly drawn) : 77.1
Oc1c(C(Nc2cccc3ccccc23)c2ccccc2)ccc2cccnc12 (stereo not drawn) : 23.9
C=CCn1c(=O)c2cnc(Nc3ccc(N4CCN(C)CC4)cc3)nc2n1-c1ccc2c(n1)[C@@](O)(CC)CC2 : 3.62

Moving on to another compound below.
In one line, give reported TGI of the entry C/C=C(\C)c1cc(=O)c2c(C)cc3c(c2o1)C(=O)c1c(O)c(C2CC(C)(N(C)C)C(O)C(C)O2)cc(C2CC(N(C)C)C(O)C(C)O2)c1C3=O (stereo not drawn) .
0.453

Attribution: PubChem BioAssay (NCI)
